system: SK-MEL-2 melanoma; assay: NCI-60 one-dose screen, 48 h (100 = growth as untreated, 0 = no growth, -100 = all killed); details: 10 µM unless noted
The panel holds about 83,000 compounds, 20% with a hit somewhere; the sample as a whole holds those more often.

[
  {
    "MOLECULE": "CSc1ccc(-c2ccccc(=O)c2O)cc1",
    "TARGET_DESC": "SK-MEL-2 melanoma",
    "growth, %": 15.2
  },
  {
    "MOLECULE": "O=C1c2ccccc2OC=C(c2ccccc2)N1CCCCNc1ccc(S(=O)(=O)Nc2ncccn2)cc1",
    "TARGET_DESC": "SK-MEL-2 melanoma",
    "growth, %": 99.1
  },
  {
    "MOLECULE": "CN(C)c1ccc(N=Nc2ccccn2)c(O)c1",
    "TARGET_DESC": "SK-MEL-2 melanoma",
    "growth, %": 27.1
  },
  {
    "MOLECULE": "COc1ccc(-c2cc(NC(=O)Nc3ccc4ncsc4c3)no2)cc1",
    "TARGET_DESC": "SK-MEL-2 melanoma",
    "growth, %": 112
  },
  {
    "MOLECULE": "Cc1ccc2c(C(C[N+](=O)[O-])c3ccco3)c(-c3ccccc3)[nH]c2c1 (stereo unspecified)",
    "TARGET_DESC": "SK-MEL-2 melanoma",
    "growth, %": 9.58
  },
  {
    "MOLECULE": "CCOc1cc2ncc(C#N)c(Nc3ccc(OCc4cccc(F)c4)c(Cl)c3)c2cc1NC(=O)CCCCC1CCSS1 (stereo unspecified)",
    "TARGET_DESC": "SK-MEL-2 melanoma",
    "growth, %": 94.3
  },
  {
    "MOLECULE": "CN1CCN(c2ccc(Nc3c4ccccc4nc4ccccc34)cc2)CC1",
    "TARGET_DESC": "SK-MEL-2 melanoma",
    "growth, %": 106
  },
  {
    "MOLECULE": "COc1ccc(C2C(C#N)=C(N)Oc3n[nH]c(-c4cccs4)c32)cc1I (stereo unspecified)",
    "TARGET_DESC": "SK-MEL-2 melanoma",
    "growth, %": 101
  },
  {
    "MOLECULE": "CC(O)CN1CC(O)=C(c2nc3ccccc3s2)C1=N (stereo unspecified)",
    "TARGET_DESC": "SK-MEL-2 melanoma",
    "growth, %": 95.1
  },
  {
    "MOLECULE": "O=S(=O)(Nc1ccc(Br)c(Cl)c1)c1ccc(-c2cnc(C3CC3)o2)cc1",
    "TARGET_DESC": "SK-MEL-2 melanoma",
    "growth, %": 34.4
  },
  {
    "MOLECULE": "Cn1c(=O)[nH]c(=O)c2nc(CCC(=O)NCCC(=O)O)c(=O)[nH]c21",
    "TARGET_DESC": "SK-MEL-2 melanoma",
    "growth, %": 106
  },
  {
    "MOLECULE": "CC(=O)Nc1ccc(-n2c(O)c(/C=N/NC(=O)Cc3ccccc3Nc3c(Cl)cccc3Cl)sc2=S)cc1",
    "TARGET_DESC": "SK-MEL-2 melanoma",
    "growth, %": 113
  },
  {
    "MOLECULE": "NC1=C(Cl)C(=O)c2ccc(S(N)(=O)=O)cc2C1=O",
    "TARGET_DESC": "SK-MEL-2 melanoma",
    "growth, %": -73.6
  },
  {
    "MOLECULE": "Cc1cc(N2CCN(c3ccnc4cc(Cl)ccc34)CC2)nc(N2CCOCC2)n1",
    "TARGET_DESC": "SK-MEL-2 melanoma",
    "growth, %": 105
  },
  {
    "MOLECULE": "Oc1ccccc1-c1nnc(CNc2ccc(Cl)cc2)o1",
    "TARGET_DESC": "SK-MEL-2 melanoma",
    "growth, %": 30.1
  },
  {
    "MOLECULE": "Cc1ccc2oc(=O)cc(C3c4ccc([nH]4)C(c4cc(=O)oc5ccc(C)cc45)c4ccc([nH]4)C(c4cc(=O)oc5ccc(C)cc45)c4ccc([nH]4)C(c4cc(=O)oc5ccc(C)cc45)c4ccc3[nH]4)c2c1 (stereo unspecified)",
    "TARGET_DESC": "SK-MEL-2 melanoma",
    "growth, %": -73.1
  },
  {
    "MOLECULE": "COc1cc2nc(N3CCCC3)nc(Nc3ccccc3)c2cc1OC",
    "TARGET_DESC": "SK-MEL-2 melanoma",
    "growth, %": -52.5
  },
  {
    "MOLECULE": "CCOC(=O)c1sc(Nc2ccc(Cl)cc2)nc1C",
    "TARGET_DESC": "SK-MEL-2 melanoma",
    "growth, %": -0.883
  },
  {
    "MOLECULE": "COc1ccc(/C=N/C2=C(C#N)C(c3ccc(N(C)C)cc3)c3ccc4ccccc4c3O2)cc1 (stereo unspecified)",
    "TARGET_DESC": "SK-MEL-2 melanoma",
    "growth, %": 62.6
  },
  {
    "MOLECULE": "C=C1c2nc3ccccc3n2C=C(c2ccc(OC)cc2)N1Cc1ccccc1",
    "TARGET_DESC": "SK-MEL-2 melanoma",
    "growth, %": 57.7
  },
  {
    "MOLECULE": "CC(=O)c1cc2c(N)c(C(=O)Nc3ccccc3)sc2nc1C",
    "TARGET_DESC": "SK-MEL-2 melanoma",
    "growth, %": 33.3
  }
]

====

tested on: LOX IMVI melanoma; test: NCI-60 one-dose screen, 48 h; conditions: 10 µM unless noted
Compounds without any hit were thinned out: in the full panel of roughly 83,000, 20% have a hit. Activity calls are given as the source filed them. How the source made its calls: active means growth percent below 10; inactive means the rest.
Labels: Y = active, N = inactive

[
  {
    "COMPOUND": "Cc1ccc(O)c(N2C(=NCc3ccco3)NS(=O)(=O)c3cnccc32)c1",
    "LABEL_VALUE": "N"
  },
  {
    "COMPOUND": "COc1cccc(-c2nc3sccn3c2-c2ccnc(NCCNS(=O)(=O)c3ccc(F)cc3)c2)c1",
    "LABEL_VALUE": "N"
  },
  {
    "COMPOUND": "C#CCOc1ccc2ncnc(N3CCC(NC(=O)CCl)CC3)c2c1",
    "LABEL_VALUE": "N"
  },
  {
    "COMPOUND": "COc1ccc(CCNc2nc3c(c(=O)n(Cc4ccc(Br)cc4)c(=O)n3C)n2C)cc1OC",
    "LABEL_VALUE": "N"
  },
  {
    "COMPOUND": "O=C(CN1C(=O)/C(=C/c2ccc(Cl)cc2)SC1=S)NCCCN1CCOCC1",
    "LABEL_VALUE": "N"
  },
  {
    "COMPOUND": "c1ccc(Cn2cc(-c3nc4ccccc4s3)c3cccnc32)cc1",
    "LABEL_VALUE": "N"
  },
  {
    "COMPOUND": "CC(C)(C)c1cc(/C=N\\NC(=O)/C=C/C=C/c2ccc3c(c2)OCO3)c(O)c(C(C)(C)C)c1",
    "LABEL_VALUE": "N"
  },
  {
    "COMPOUND": "COc1cc2nc(N3CCCC3)nc(Nc3ccccc3)c2cc1OC",
    "LABEL_VALUE": "Y"
  },
  {
    "COMPOUND": "CN1CCN=C1c1ccc(NC(=O)c2ccc(C(=O)Nc3ccc(C4=NCCN4C)cc3)cc2)cc1",
    "LABEL_VALUE": "N"
  },
  {
    "COMPOUND": "Cc1nn(-c2cc(=O)[nH]c3ccc(Cl)cc23)c(N)c1C#N",
    "LABEL_VALUE": "N"
  },
  {
    "COMPOUND": "O=C1OCC2=C1C(c1ccncc1)c1cc3c(cc1N2CCO)OCO3 (stereo not given)",
    "LABEL_VALUE": "N"
  },
  {
    "COMPOUND": "N#Cc1nnn(-c2ccc(S(N)(=O)=O)cc2)c1NCC(=O)c1ccccc1",
    "LABEL_VALUE": "N"
  },
  {
    "COMPOUND": "OCCN1CCN(c2nc(Nc3ccc(-c4nc5ccccc5[nH]4)cc3)c3cn[nH]c3n2)CC1",
    "LABEL_VALUE": "Y"
  },
  {
    "COMPOUND": "O=C(NCCN1CCOCC1)Nc1ccc(-c2cc3c(Nc4ccc(Oc5cccc(C(F)(F)F)c5)c(Cl)c4)ncnc3s2)cc1",
    "LABEL_VALUE": "Y"
  },
  {
    "COMPOUND": "c1ccc(-c2cc3n4c(-c5ccccc5)nn(-c5ccccc5)c4cnc-3n2)cc1",
    "LABEL_VALUE": "N"
  },
  {
    "COMPOUND": "O=S(=O)(Nc1ccc(I)cc1F)c1ccc(-c2cnc(C3CC3)o2)cc1",
    "LABEL_VALUE": "N"
  },
  {
    "COMPOUND": "CCCOc1cc2ccccc2cc1C(=O)Nc1nc(N)c2c(ccc3nccc32)[nH]1",
    "LABEL_VALUE": "Y"
  },
  {
    "COMPOUND": "CON1C(=O)CC[C@]2(C)[C@H]3CC[C@@H]4C([C@@]5(C)CCC(=O)O5)CC[C@@]4(C)[C@]3(C)CC[C@H]2C1(C)C (stereo not given in full)",
    "LABEL_VALUE": "N"
  },
  {
    "COMPOUND": "O=S(=O)(Nc1ccc(NS(=O)(=O)c2ccccc2)c(Cl)c1)c1ccccc1",
    "LABEL_VALUE": "N"
  },
  {
    "COMPOUND": "Cc1cc(N2CCOCC2)nc(N[C@@H]2CCC[C@H](Nc3ccnc4cc(Cl)ccc34)C2)n1",
    "LABEL_VALUE": "Y"
  }
]
